Hello, the source for this data is PubChem BioAssay (NCI), in case you need it.

Experimental Protocol: NCI Yeast Anticancer Drug Screen. Data for the rad50 strain (AID 155);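 also: 0% = growth of vehicle-only cultures of the same strain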
Conditions: S. cerevisiae rad50 strain growth inhibition; at 5.0 µM (retest, dose inferred, filed as 0.5)
About 79,000 compounds went through this panel and 15% of them were active in at least one assay; those are over-represented in the sample as a whole. Calls of active or inactive are those of the source. Rule as the data show it: active = growth inhibition above about 70%; inactive = the rest. Where a SMILES comes first, the peptide text is derived from it. The star is where a group is joined. OSu = O=C1CCC(=O)N1O*; OBn = c1ccc(CO*)cc1; Bn = c1ccc(C*)cc1
Outcome codes: 1 = active, -1 = inactive

1) CC(C)CC(NC(=O)C(N)CCC(=O)OCc1ccccc1)C(=O)NC(COCc1ccccc1)C(=O)NC(Cc1ccccc1)C(=O)ON1C(=O)CCC1=O (centres undefined) (H-E(OBn)LS(Bn)F-OSu; configuration not given here) :: -1
2) O=C1CN(/N=C\c2ccc([N+](=O)[O-])o2)C(=O)N1 :: -1
3) N#CCc1ccccc1-c1cccc2ccccc12 :: -1
4) OC1(c2ccccc2)c2ccccc2Sc2ccccc21 :: -1
5) CC(C(=O)NN)C(O)C(C)(C)O (centres undefined) :: -1
6) Cc1ccc(OS(=O)(=O)c2ccc(Br)cc2)cc1 :: -1
7) Nc1ccc2ccccc2c1N=Nc1ccccc1 :: -1
8) COC(=O)/C=C(\NC1CC(OC2C[C@](O)(C(C)=O)Cc3c(O)c4c(c(O)c32)C(=O)c2c(OC)cccc2C4=O)OC(C)C1O)C(=O)OC (some centres undefined) :: -1
9) COc1ccc(C(=O)c2cc(Cl)ccc2N)cc1 :: -1
10) O=C1c2ccccc2C(O)(c2ccccc2)c2c(Cl)cccc21 (centres undefined) :: -1
11) O=[N+]([O-])/C=C/c1c[nH]c2c1ccc1ccccc12 :: -1
12) C(=C\N1CCCCC1)/c1nnnn1-c1ccccc1 :: -1
13) CCC/C(=N\O)S(=O)(=O)c1ccc(NN=O)nc1 :: -1
14) CCCCCCCCCCCCCCCCCC[N+]1(C)CCC[N+](C)(CCCCCCCCCCCCCCCCCC)CC1 (centres undefined) :: -1
15) CSc1c(C)n([O-])c2cc(Cl)c(Cl)cc2[n+]1=O :: -1
16) CC1(c2ccc(Cl)cc2)OC(=O)C(=Cc2ccc([N+](=O)[O-])s2)C(=O)O1 (centres undefined) :: -1
17) N#CSc1ccc2nc(NCO)sc2c1 :: -1
18) CCOC(=O)N1CCN(CCCCCCOc2ccc(C(C)(C)C)cc2)CC1 :: -1
19) CCc1cccc(CC)c1NC(=O)C1=C(C)NC(C)=C(C(=O)Nc2c(CC)cccc2CC)C1c1ccc2c(c1)OCO2 :: -1
20) Oc1cc(-[n+]2ccccc2)c(O)c2ccccc12 :: -1
21) OCC(c1ccccc1)[P+](c1ccccc1)(c1ccccc1)c1ccccc1 (centres undefined) :: -1
22) Cc1cccc2c1C(=O)N(CC[P+](c1ccccc1)(c1ccccc1)c1ccccc1)C2=O :: 1
23) O=C(/C(=C\I)c1ccccc1)c1ccccc1 :: -1
24) CC(/C=C/C(O)=C1/C(=O)CNC1=O)=C\[C@@H](C)[C@H]1O[C@@]2(C)O[C@H](C(=O)[C@@H]3O[C@@]32C)[C@@H]1C :: 1
25) CC(C)N(CCOc1ccc(/C=C/c2ccccc2)cc1)C(C)C :: -1
26) COC(=O)c1nc(=S)[nH]c(C(=O)OC)c1C(=O)c1c(C)[nH]c2ccccc12 :: -1
27) Cc1cc(O)c(/C=N/C(=S)Nc2ccc(S(N)(=O)=O)cc2)c(=O)o1 :: -1
28) COc1ccnc2c1C(=O)c1nc3ccccc3c3ccnc-2c13 :: -1
29) N#CC#Cc1cccc(C#CC#N)c1 :: 1
30) CC(CO)(CO)Cc1ccccc1 :: -1
31) Cc1ccc(C)c(C(=O)/C=C/C(=O)O)c1 :: -1
32) CC(=O)N1C=C2CCC3c4ccccc4NC3C2CC1 (centres undefined) :: -1
33) COC(=O)c1c(C)cccc1C1CN=NC12Cc1ccc(C)c(C)c1C2=O (centres undefined) :: -1
34) Cc1nc(-c2ccccc2)nc2c1nc(C(C)C)n2Nc1ccccc1 :: -1
35) COc1ccc2c(c1)CC[C@@H]1[C@@H]2CC[C@]2(C)/C(=N/OCCN3CCCC3)CC[C@@H]12 :: 1
36) C/C(=N/NC(N)=S)C(CN(C)C)C(C1=C(O)c2ccccc2OC1)c1ccccc1 (centres undefined) :: -1
37) COc1ccc2c(c1)C1(C)CCCC(C)(C(=O)O)C1C(Br)C2=O (centres undefined) :: -1
38) O=C(N/N=C/c1cc(Br)ccc1O)c1ccccc1 :: -1
39) CCOC(=O)/C(=C\c1cccc(C(F)(F)F)c1)P(=O)(OCC)OCC :: -1
40) O=Cc1c(Cn2ccnc2)c2cc([N+](=O)[O-])ccc2n1Cc1ccccc1 :: -1
41) CC(=O)Nc1ccc2c(c1)Cc1cccc(F)c1-2 :: -1
42) CCN(CC)CCC(=O)/C=C/c1ccc(Cl)c(Cl)c1 :: -1
43) COC(=O)c1nc(Cl)nc(Cl)c1N :: -1
44) CCC(c1ccc(O)cc1)C(O)(CC)c1ccc(O)cc1 (centres undefined) :: -1
